# experimentalSystem: GST-FXR1 S382-P476 WT (human, UniProt P51114 382-476)
# Sequence (P51114 382-476): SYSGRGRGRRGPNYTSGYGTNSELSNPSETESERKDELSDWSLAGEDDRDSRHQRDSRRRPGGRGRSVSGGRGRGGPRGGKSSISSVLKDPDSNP
# experimentalProtocol: EMSA; 150 mM KCl, 1 mM Mg2+; EMSA: 50 mM Tris-HCl pH 7.4, 1 mM MgCl2, 0.1 mM EDTA, 150 mM KCl (or LiCl, printed LiCl2), 1 mM DTT, 1 U/ul RNase inhibitor, 100 ug/ml BSA, ~25 C, 20 min; 0.5 pmol RNA in 10 ul
# protocolConditions: protein: recombinant; tags: N-terminal GST (pGEX-6P-1); label: 5' 32P or 5' ATTO 550; intramolecular G4 (plausible structure)
readoutKind: Kd (nM)
Your answer should be a plain number; it is taken to be in nM.

Query: Give recorded Kd. GGGGGUGAGGGUCCCAUGUGGUGGCACAGG (structured_RNA) [30-mer p21 3'UTR G4-RNA (seg1)]
Response: 25
